# DC50 per entry
- targetOfAssay: IRAK4 (Homo sapiens, UniProt Q9NWZ3)
- Construct: Degradation of IRAK4 in OCI-LY10 was quantitatively measured using Meso Scale Discovery technology; endogenous in cells; host or cells: OCI-LY10
- experimentalProtocol: IRAK4 MSD Degradation in OCI-LY10
- Assay type: cell-based
- details: OCI-LY10 cells, 24 hrs incubation, MSD; read-out: IRAK4 degradation in OCI-LY10 at 24 hrs: DC50
- Procedure: Degradation of IRAK4 in OCI-LY10 was quantitatively measured using Meso Scale Discovery technology. […] Compounds were then added to the assay plates with a final top concentration of 1 to 10 μM in a 1:3 dilution series with total of 8 doses. […] The assay plates were then incubated at room temperature for 1 hour, washed 3 times with 150 μL/well TBST buffer, and 150 μL/well MSD reading buffer (Meso Scale Discovery catalog number R92TC-2) was added. […]

Past entries and their recorded results:
compound	DC50
Cn1c(=O)n(C2CCC(=O)NC2=O)c2cccc(OC3CC(N4CCN(C[C@H]5CC[C@H](n6cc(NC(=O)c7cnn8ccc(N9C[C@H]%10C[C@@H]9CO%10)nc78)c(C(F)F)n6)CC5)CC4)C3)c21 (some centres unmarked) [I-670]	< 10 nM
COc1ccn2ncc(C(=O)Nc3cn([C@H]4CC[C@H](CN5CCN(CC#Cc6cccc7c6n(C)c(=O)n7C6CCC(=O)NC6=O)CC5)CC4)nc3C(F)F)c2n1 (some centres unmarked) [I-99]	> 200 nM
Cn1c(=O)n(C2CCC(=O)NC2=O)c2cccc(C3CCN(C[C@H]4CC[C@H](n5cc6cc(NC(=O)c7cccc(C(F)(F)F)n7)ccc6n5)CC4)CC3F)c21 (some centres unmarked) [I-553]	< 10 nM
O=C1CCN(c2cc(C#CCOC3CCN(C[C@H]4CC[C@H](n5cc(NC(=O)c6cnn7ccc(N8C[C@H]9C[C@@H]8CO9)nc67)c(C(F)F)n5)CC4)CC3)ccc2Cl)C(=O)N1 [I-256]	> 200 nM

Now examine the next entry.
compound CC1CN(c2ccn3ncc(C(=O)Nc4cn([C@H]5CC[C@H](CN(C)C6CCN(c7cccc8c7n(C)c(=O)n8C7CCC(=O)NC7=O)CC6)CC5)nc4C(F)F)c3n2)CC(C)O1 (some centres unmarked) [I-359] , DC50 observed: > 200 nM

----------
# DC50 per entry
- targetOfAssay: IRAK4 (Homo sapiens, UniProt Q9NWZ3)
- Construct: Degradation of IRAK4 in OCI-LY10 was quantitatively measured using Meso Scale Discovery technology; endogenous in cells; host or cells: OCI-LY10
- Sequence (Q9NWZ3 1-460): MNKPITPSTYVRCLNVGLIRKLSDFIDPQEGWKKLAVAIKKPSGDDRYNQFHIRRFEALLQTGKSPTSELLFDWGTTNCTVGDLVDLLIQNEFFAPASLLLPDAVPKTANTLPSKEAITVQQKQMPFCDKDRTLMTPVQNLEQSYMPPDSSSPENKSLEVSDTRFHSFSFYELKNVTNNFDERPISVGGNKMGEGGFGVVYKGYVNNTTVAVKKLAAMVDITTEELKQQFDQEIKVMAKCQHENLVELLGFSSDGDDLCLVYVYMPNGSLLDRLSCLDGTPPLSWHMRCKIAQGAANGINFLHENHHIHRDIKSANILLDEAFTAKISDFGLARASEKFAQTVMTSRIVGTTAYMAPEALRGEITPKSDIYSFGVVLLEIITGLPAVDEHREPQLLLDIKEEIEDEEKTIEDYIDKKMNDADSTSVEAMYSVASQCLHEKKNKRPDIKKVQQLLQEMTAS
- experimentalProtocol: IRAK4 MSD Degradation in OCI-LY10
- Type: cell-based
- details: OCI-LY10 cells, 4 hrs incubation, MSD; read-out: IRAK4 degradation in OCI-LY10 at 4 hrs: DC50

Past entries and their recorded results:
compound	dataValue
CN(C[C@H]1CC[C@H](n2cc(NC(=O)c3cnn4ccc(N5CCOC6(CCC6)C5)nc34)c(C(F)F)n2)CC1)C1CCN(c2cccc3c2n(C)c(=O)n3C2CCC(=O)NC2=O)CC1(F)F (stereo partly shown)	> 0.2 µM
Cn1c(=O)n(C2CCC(=O)NC2=O)c2cccc(C#CCN3CC4CCC(C3)N4C[C@H]3CC[C@H](n4cc(NC(=O)c5cnn6ccc(N7C[C@H]8C[C@@H]7CO8)nc56)c(C(F)F)n4)CC3)c21 (stereo partly shown)	< 0.01 µM
C[C@@H]1CN(c2ccn3ncc(C(=O)Nc4cn([C@H]5CC[C@H](CN6CCN(CC#Cc7cccc8c7n(C)c(=O)n8C7CCC(=O)NC7=O)CC6)CC5)nc4C(F)F)c3n2)CCO1 (stereo partly shown)	> 0.2 µM

compound Cn1c(=O)n(C2CCC(=O)NC2=O)c2cccc(C#CCN3CCN(C[C@H]4CC[C@H](n5cc(NC(=O)c6cnn7ccc(C8CCOC8)nc67)c(C(F)F)n5)CC4)CC3)c21 (stereo partly shown) , DC50 observed: 0.01 to 0.1 µM

compound Cn1c(=O)n(C2CCC(=O)NC2=O)c2cccc(N3CCC(OC[C@H]4CC[C@H](n5cc(NC(=O)c6cnn7cccnc67)c(C(F)F)n5)CC4)CC3)c21 (stereo partly shown) [I-240] , DC50 observed: > 0.2 µM

compound Cn1c(=O)n(C2CCC(=O)NC2=O)c2cccc(O[C@H]3C[C@H](N4CCN(C[C@H]5CC[C@H](n6cc(NC(=O)c7cnn8ccc(N9C[C@H]%10CC9CO%10)nc78)c(C(F)F)n6)CC5)CC4)C3)c21 (stereo partly shown) , DC50 observed: > 0.2 µM

compound Cn1c(=O)n(C2CCC(=O)NC2=O)c2cccc(CC[C@@H]3CN(Cc4ccc(-n5cc(NC(=O)c6cnn7ccc(N8C[C@H]9C[C@@H]8CO9)nc67)c(C(F)F)n5)cc4)CCO3)c21 (stereo partly shown) , DC50 observed: > 0.2 µM

compound Cn1c(=O)n(C2CCC(=O)NC2=O)c2cccc([C@@H]3CCN(C[C@H]4CC[C@H](n5cc6cc(NC(=O)c7cccc(C(F)F)n7)ccc6n5)CC4)C[C@@H]3F)c21 (stereo partly shown) , DC50 observed: > 0.2 µM

compound COc1ccc2c(c1C#CCOC1CCN(C[C@H]3CC[C@H](n4cc(NC(=O)c5cnn6ccc(N7C[C@H]8C[C@@H]7CO8)nc56)c(C(F)F)n4)CC3)CC1)n(C)c(=O)n2C1CCC(=O)NC1=O (stereo partly shown) , DC50 observed: < 0.01 µM

compound Cn1c(=O)n(C2CCC(=O)NC2=O)c2cccc(N3CCC(F)(CN4CC5(CCC(n6cc7cc(NC(=O)c8cccc(C(F)(F)F)n8)c(C#N)cc7n6)CC5)C4)CC3)c21 (stereo not shown) , DC50 observed: > 0.2 µM

----------
# DC50 per entry
- targetOfAssay: IRAK4 (Homo sapiens, UniProt Q9NWZ3)
- Construct: Degradation of IRAK4 in OCI-LY10 was quantitatively measured using Meso Scale Discovery technology; endogenous in cells; host or cells: OCI-LY10
- Sequence (Q9NWZ3 1-460): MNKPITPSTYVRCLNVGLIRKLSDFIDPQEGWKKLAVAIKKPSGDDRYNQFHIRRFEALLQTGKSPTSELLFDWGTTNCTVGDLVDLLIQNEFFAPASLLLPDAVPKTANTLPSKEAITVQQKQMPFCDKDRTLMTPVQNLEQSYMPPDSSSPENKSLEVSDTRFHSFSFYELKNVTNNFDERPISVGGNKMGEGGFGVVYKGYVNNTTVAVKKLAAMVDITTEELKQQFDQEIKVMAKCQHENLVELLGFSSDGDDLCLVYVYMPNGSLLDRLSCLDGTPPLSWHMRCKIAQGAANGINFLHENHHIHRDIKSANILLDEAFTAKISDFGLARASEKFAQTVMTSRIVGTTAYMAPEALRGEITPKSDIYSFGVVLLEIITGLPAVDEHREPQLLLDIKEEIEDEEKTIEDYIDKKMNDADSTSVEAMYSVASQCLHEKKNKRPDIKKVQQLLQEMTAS
- experimentalProtocol: IRAK4 MSD Degradation in OCI-LY10
- Type: cell-based
- details: OCI-LY10 cells, 24 hrs incubation, MSD; read-out: IRAK4 degradation in OCI-LY10 at 24 hrs: DC50

compound	targetOfAssay	dataValue
CN(C[C@H]1CC[C@H](n2cc(NC(=O)c3cnn4ccc(N5CC6CC(C5)O6)nc34)c(C(F)F)n2)CC1)C1CCN(c2cccc3c2n(C)c(=O)n3C2CCC(=O)NC2=O)CC1(F)F (some centres unmarked)	IRAK4 (Homo sapiens, UniProt Q9NWZ3)	< 10 nM
CN(C[C@H]1CC[C@H](n2cc(NC(=O)c3cnn4ccc(N5CCC5)nc34)c(C(F)F)n2)CC1)C1CCN(c2cccc3c2n(C)c(=O)n3C2CCC(=O)NC2=O)CC1 (some centres unmarked)	IRAK4 (Homo sapiens, UniProt Q9NWZ3)	< 10 nM
Cn1c(=O)n(C2CCC(=O)NC2=O)c2cccc(N3CC(CCC4(F)CN(C[C@H]5CC[C@H](n6cc(NC(=O)c7cnn8ccc(N9C[C@H]%10C[C@@H]9CO%10)nc78)c(C(F)F)n6)CC5)C4)C3)c21 (some centres unmarked)	IRAK4 (Homo sapiens, UniProt Q9NWZ3)	> 200 nM

compound Cn1c(=O)n(C2CCC(=O)NC2=O)c2cccc([C@H]3C[C@H](COC4CN(C[C@H]5CC[C@H](n6cc(NC(=O)c7cnn8ccc(N9C[C@H]%10C[C@@H]9CO%10)nc78)c(C(F)F)n6)CC5)C4)C3)c21 (some centres unmarked) , DC50 observed: < 10 nM

compound Cn1c(=O)n(C2CCC(=O)NC2=O)c2cccc(C#CCOC3CCN(CC4CCN(c5cnc(C(F)F)c(NC(=O)c6cnn7ccc(N8C[C@H]9C[C@@H]8CO9)nc67)c5)CC4)CC3)c21 (some centres unmarked) , DC50 observed: > 200 nM
